# System: human PKK mRNA
# experiment: Antisense inhibition of human PKK mRNA in HepaRG cells, 1,000 nM, MOE/deoxy/cEt oligonucleotides (Example 3)
# Format: cell-based
# test-conditions: HepaRG cells, electroporation with 1,000 nM antisense oligonucleotide, approximately 24 hours, primer probe set RTS3454, relative to untreated control cells; experiment of Table 23
Strand notation (5' to 3'): a small letter for the sugar, then the base; units joined by * are phosphorothioate-linked, units joined directly phosphodiester-linked; [ ] holds rarer units or linkages, { } end groups; capitals alone tell only the bases. e = 2'-O-(2-methoxyethyl) (MOE); k = constrained ethyl (cEt); [5mC] = 5-methylcytosine; d = 2'-deoxy (DNA)
readout-kind: % inhibition (%)

> print(dat)
                                  substance  readout.kind  result
1  547945 (eA*eA*k[5mC]*dT*dT*dG*dG*dT*dG*dT*dG*d[5mC]*d[5mC]*kA*k[5mC]*eT; antisense) [compound 547945]  % inhibition      62
2  547948 (eA*eG*kG*dA*dA*d[5mC]*dT*dT*dG*dG*dT*dG*dT*kG*k[5mC]*e[5mC]; antisense) [compound 547948]  % inhibition      77
3  547949 (eG*eT*kG*dT*dT*dT*dT*d[5mC]*dT*dT*dG*dA*dG*kG*kA*eG; antisense) [compound 547949]  % inhibition       6
4  547930 (eT*eG*kA*dT*dA*dG*dG*dT*dG*d[5mC]*dA*dG*dA*kT*kG*eG; antisense) [compound 547930]  % inhibition      48
5  547932 (e[5mC]*eG*kA*dT*dT*dT*dT*d[5mC]*d[5mC]*dA*dT*dA*d[5mC]*kA*kT*eT; antisense) [compound 547932]  % inhibition      33
6  547929 (eA*eG*kA*dT*dG*dG*dT*d[5mC]*d[5mC]*dG*dA*d[5mC]*dA*k[5mC]*kA*e[5mC]; antisense) [compound 547929]  % inhibition      65

----------
# Tested on: human PKK mRNA
# experiment: Antisense inhibition of human PKK mRNA in HepaRG cells, 1,000 nM, MOE/deoxy/cEt oligonucleotides (Example 3)
# Assay type: cell-based
# test-conditions: HepaRG cells, 1,000 nM antisense oligonucleotide, Table 29
Strand notation (5' to 3'): a small letter for the sugar, then the base; units joined by * are phosphorothioate-linked, units joined directly phosphodiester-linked; [ ] holds rarer units or linkages, { } end groups; capitals alone tell only the bases. e = 2'-O-(2-methoxyethyl) (MOE); k = constrained ethyl (cEt); [5mC] = 5-methylcytosine; d = 2'-deoxy (DNA)
readout-kind: % inhibition

> print(dat)
                                   substance  result
 1  548560 (antisense e[5mC]*eA*k[5mC]*dT*dG*d[5mC]*d[5mC]*dT*dA*dG*dA*dA*dA*kG*kG*e[5mC]) [compound 548560]     16%
 2  548592 (e[5mC]*eT*k[5mC]*dA*d[5mC]*d[5mC]*dA*dG*dA*dG*dT*dT*dG*kT*k[5mC]*e[5mC]; antisense) [compound 548592]      7%
 3  548606 (e[5mC]*eG*kG*dT*dG*dG*dT*dG*dG*dG*dA*dT*dT*kG*kG*eT; antisense) [compound 548606]     41%
 4  548556 (antisense eA*eT*kG*d[5mC]*dA*dT*dG*d[5mC]*d[5mC]*dT*dA*d[5mC]*d[5mC]*k[5mC]*kA*eA) [compound 548556]     43%
 5  547747 (eT*e[5mC]*kA*d[5mC]*dT*dG*dT*dA*d[5mC]*dT*dA*dG*dT*kT*kT*e[5mC]) [compound 547747]     64%
 6  548544 (antisense eG*e[5mC]*kT*dG*dT*dG*dA*d[5mC]*dT*d[5mC]*dA*dG*dA*kT*k[5mC]*eA) [compound 548544]     62%
 7  548582 (eT*eA*kG*d[5mC]*dT*d[5mC]*d[5mC]*dA*dT*dG*d[5mC]*dT*dG*kT*kG*eT; antisense) [compound 548582]     59%
 8  548581 (eG*eG*kT*dG*dG*dG*dT*dT*dA*dT*d[5mC]*dT*dG*kA*kG*eA; antisense) [compound 548581]     13%
 9  548585 (eT*eA*kG*dG*d[5mC]*dA*d[5mC]*dA*dG*dA*d[5mC]*dA*dA*k[5mC]*k[5mC]*eT; antisense) [compound 548585]     33%
10  548561 (antisense eT*eG*kT*dA*dG*dT*dA*dT*d[5mC]*d[5mC]*dA*dG*dA*kG*kT*eA) [compound 548561]     46%
11  548608 (antisense eA*eT*k[5mC]*dG*dG*dT*dG*dG*dT*dG*dG*dG*dA*kT*kT*eG) [compound 548608]     25%
12  548549 (antisense eT*eG*kT*dG*d[5mC]*dA*dA*dT*d[5mC]*dA*dG*dG*dT*kG*kG*eA) [compound 548549]     56%
13  548576 (eT*e[5mC]*kA*dT*dG*dT*dG*dG*d[5mC]*dA*dA*d[5mC]*d[5mC]*kT*kG*eT; antisense) [compound 548576]     41%

----------
# pIC50 per entry
# Test system: human PKK mRNA
# experiment: Dose-dependent antisense inhibition of human PKK in HepaRG cells, 0.19-5.00 uM (Example 5)
# Type: cell-based
# test-conditions: 4 point dose response, HepaRG cells; Table 35
pIC50: −log10 of the molar value. Strand notation (5' to 3'): a small letter for the sugar, then the base; units joined by * are phosphorothioate-linked, units joined directly phosphodiester-linked; [ ] holds rarer units or linkages, { } end groups; capitals alone tell only the bases. e = 2'-O-(2-methoxyethyl) (MOE); [5mC] = 5-methylcytosine; d = 2'-deoxy (DNA)

substance	pIC50
546852 (e[5mC]*eA*eG*eT*eA*dT*d[5mC]*dA*d[5mC]*dT*dG*dT*d[5mC]*d[5mC]*dT*eA*eT*eA*eT*e[5mC]; antisense) [compound 546852]	6.10
531231 (eT*eA*eT*e[5mC]*eA*d[5mC]*dT*dG*dT*dA*d[5mC]*dT*dA*dG*dT*eT*eT*e[5mC]*e[5mC]*eT) [compound 531231]	6.15
547602 (antisense eT*e[5mC]*eA*e[5mC]*eT*dG*dT*dA*d[5mC]*d[5mC]*dT*dA*dT*dA*dA*e[5mC]*eT*e[5mC]*eT*eA) [compound 547602]	6.30
546301 (antisense eT*eT*eG*eT*eA*dA*dT*dG*dT*d[5mC]*dT*dG*dA*d[5mC]*dA*eG*eA*eT*eT*eT) [compound 546301]	6.10
546889 (eG*eT*e[5mC]*e[5mC]*eT*dA*dT*dG*dT*d[5mC]*dA*d[5mC]*dT*dG*dT*eA*e[5mC]*e[5mC]*eT*eA; antisense) [compound 546889]	6.22

----------
# System: human PKK mRNA
# experiment: Dose-dependent antisense inhibition of human PKK in HepaRG cells, 0.19-5.00 uM (Example 5)
# Type: cell-based
# test-conditions: 0.19 μM, HepaRG cells, electroporation, approximately 16 hours; Table 35
Strand notation (5' to 3'): a small letter for the sugar, then the base; units joined by * are phosphorothioate-linked, units joined directly phosphodiester-linked; [ ] holds rarer units or linkages, { } end groups; capitals alone tell only the bases. e = 2'-O-(2-methoxyethyl) (MOE); [5mC] = 5-methylcytosine; d = 2'-deoxy (DNA)
readout-kind: percent inhibition of PKK at 0.19 μM (%)

substance	readout-kind	result
546889 (eG*eT*e[5mC]*e[5mC]*eT*dA*dT*dG*dT*d[5mC]*dA*d[5mC]*dT*dG*dT*eA*e[5mC]*e[5mC]*eT*eA; antisense) [compound 546889]	percent inhibition of PKK at 0.19 μM	23
546852 (e[5mC]*eA*eG*eT*eA*dT*d[5mC]*dA*d[5mC]*dT*dG*dT*d[5mC]*d[5mC]*dT*eA*eT*eA*eT*e[5mC]; antisense) [compound 546852]	percent inhibition of PKK at 0.19 μM	19
546301 (antisense eT*eT*eG*eT*eA*dA*dT*dG*dT*d[5mC]*dT*dG*dA*d[5mC]*dA*eG*eA*eT*eT*eT) [compound 546301]	percent inhibition of PKK at 0.19 μM	25
531231 (eT*eA*eT*e[5mC]*eA*d[5mC]*dT*dG*dT*dA*d[5mC]*dT*dA*dG*dT*eT*eT*e[5mC]*e[5mC]*eT) [compound 531231]	percent inhibition of PKK at 0.19 μM	25
547602 (antisense eT*e[5mC]*eA*e[5mC]*eT*dG*dT*dA*d[5mC]*d[5mC]*dT*dA*dT*dA*dA*e[5mC]*eT*e[5mC]*eT*eA) [compound 547602]	percent inhibition of PKK at 0.19 μM	18
